# Test system: PPARg:RXRa 270nM:90nM, anti-RXR (NR concentration 270 nM, RXRa partner concentration 90 nM)
# assay.summary: PBM binding z-score (relative to random genomic background probes); higher = stronger binding; sequences stand for … in GC…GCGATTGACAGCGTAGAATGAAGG
Answer rule not met if PBM binding z-score is under 2, and rule met if it is 2 or more.

Q: hey, is PBM binding z-score for this one >= 2? `AATATAGGGTCATCGTAGGCCAGAGTACGCACAG`
A: rule met

Q: hey, is PBM binding z-score for this one >= 2? `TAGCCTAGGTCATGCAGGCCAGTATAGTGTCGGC`
A: rule met

Q: hey, is PBM binding z-score for this one >= 2? `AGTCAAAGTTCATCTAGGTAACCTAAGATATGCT`
A: rule met

Q: hey, is PBM binding z-score for this one >= 2? `CCAGACAGCTGAAAGGTAACTCAGTCTGGTACGC`
A: rule not met

Q: hey, is PBM binding z-score for this one >= 2? `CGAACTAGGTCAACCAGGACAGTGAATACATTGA`
A: rule met

Q: hey, is PBM binding z-score for this one >= 2? `GCTGCTGGGTCAGGTTGGTCAGCTAACGGGTACG`
A: rule not met

Q: hey, is PBM binding z-score for this one >= 2? `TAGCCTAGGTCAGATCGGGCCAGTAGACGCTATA`
A: rule not met

Q: hey, is PBM binding z-score for this one >= 2? `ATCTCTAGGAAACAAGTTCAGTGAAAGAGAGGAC`
A: rule not met

Q: hey, is PBM binding z-score for this one >= 2? `CCTCCTGGGCCAAAAAGGTCATTGATGCCGATAA`
A: rule met

Q: hey, is PBM binding z-score for this one >= 2? `CCGACCGGGGCAGAAAGGTTACCATACCATCCGG`
A: rule not met

Q: hey, is PBM binding z-score for this one >= 2? `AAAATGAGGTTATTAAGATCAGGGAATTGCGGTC`
A: rule met
